Form field: basophils (one value per entry).
Test: Hematology assays in cynomolgus monkeys (Example 45)
Assay type: in vivo
Conditions: day 71
Parameter measured: basophils (%)

[[record]]
substance = "ISIS 416864: MOE gapmer, nucleobases 1275 to 1318 of SEQ ID NO: 1 (Table 8) (antisense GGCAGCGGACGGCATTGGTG; MOE gapmer, wing and gap sizes not given here)"
parameter_measured = "basophils"
measured_value = 0.4

[[record]]
substance = "ISIS 416850: MOE gapmer, nucleobases 1275 to 1318 of SEQ ID NO: 1 (Table 8) (antisense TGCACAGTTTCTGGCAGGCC; MOE gapmer, wing and gap sizes not given here)"
parameter_measured = "basophils"
measured_value = 0.3

[[record]]
substance = "ISIS 416858: MOE gapmer, nucleobases 1275 to 1318 of SEQ ID NO: 1 (Table 8) (antisense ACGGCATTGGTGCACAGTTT; MOE gapmer, wing and gap sizes not given here)"
parameter_measured = "basophils"
measured_value = 0.4

[[record]]
substance = "ISIS 416838: MOE gapmer, nucleobases 1018 to 1042 of SEQ ID NO: 1 (Table 6) (antisense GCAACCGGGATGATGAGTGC; MOE gapmer, wing and gap sizes not given here)"
parameter_measured = "basophils"
measured_value = 0.5

[[record]]
substance = "ISIS 417002: MOE gapmer, nucleobases 1275 to 1318 of SEQ ID NO: 1 (Table 8) (antisense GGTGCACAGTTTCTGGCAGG; MOE gapmer, wing and gap sizes not given here)"
parameter_measured = "basophils"
measured_value = 0.3


* * *

Assay: Hematology assays in cynomolgus monkeys (Example 45)
Format: in vivo
Details: day 78; escalating dose regimen
Parameter measured: MCHC (g/dL)

[[record]]
substance = "ISIS 416864: MOE gapmer, nucleobases 1275 to 1318 of SEQ ID NO: 1 (Table 8) (antisense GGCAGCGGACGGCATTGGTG; MOE gapmer, wing and gap sizes not given here)"
measured_value = 30

[[record]]
substance = "ISIS 417002: MOE gapmer, nucleobases 1275 to 1318 of SEQ ID NO: 1 (Table 8) (antisense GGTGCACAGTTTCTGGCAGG; MOE gapmer, wing and gap sizes not given here)"
measured_value = 31

[[record]]
substance = "ISIS 416858: MOE gapmer, nucleobases 1275 to 1318 of SEQ ID NO: 1 (Table 8) (antisense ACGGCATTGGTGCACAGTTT; MOE gapmer, wing and gap sizes not given here)"
measured_value = 32

[[record]]
substance = "ISIS 416850: MOE gapmer, nucleobases 1275 to 1318 of SEQ ID NO: 1 (Table 8) (antisense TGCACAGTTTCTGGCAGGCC; MOE gapmer, wing and gap sizes not given here)"
measured_value = 29

[[record]]
substance = "ISIS 416838: MOE gapmer, nucleobases 1018 to 1042 of SEQ ID NO: 1 (Table 6) (antisense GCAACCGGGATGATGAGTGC; MOE gapmer, wing and gap sizes not given here)"
measured_value = 30


* * *

Form field: Spleen weight (one value per entry).
Assay: Body and organ weights of cynomolgus monkeys (Example 46)
Format: in vivo
Design: unit not given here
Conditions: day 55, after euthanasia
Procedure: Groups, each consisting of two male and two female monkeys, were injected subcutaneously with 25 mg/kg of ISIS 416850, ISIS 449709, ISIS 445522, ISIS 449710, ISIS 449707, ISIS 449711, ISIS 449708, 416858, and ISIS 445531. […] Body weights were taken 14 days and 7 days before the start of treatment and were then measured weekly throughout the treatment period. […]
Strand notation (5' to 3'): a small letter for the sugar, then the base; units joined by * are phosphorothioate-linked, units joined directly phosphodiester-linked; [ ] holds rarer units or linkages, { } end groups; capitals alone tell only the bases. e = 2'-O-(2-methoxyethyl) (MOE); [5mC] = 5-methylcytosine; d = 2'-deoxy (DNA)
Parameter measured: Spleen weight

[[record]]
substance = "ISIS 416850: MOE gapmer, nucleobases 1275 to 1318 of SEQ ID NO: 1 (Table 8) (antisense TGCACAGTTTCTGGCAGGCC; MOE gapmer, wing and gap sizes not given here)"
parameter_measured = "Spleen weight"
measured_value = 0.17

[[record]]
substance = "ISIS 445531: 5-8-5 or 6-8-6 MOE microwalk gapmer (Table 44) (antisense eG*eG*e[5mC]*eA*eT*dT*dG*dG*dT*dG*d[5mC]*dA*d[5mC]*eA*eG*eT*eT*eT)"
parameter_measured = "Spleen weight"
measured_value = 0.24

[[record]]
substance = "ISIS 416858: MOE gapmer, nucleobases 1275 to 1318 of SEQ ID NO: 1 (Table 8) (antisense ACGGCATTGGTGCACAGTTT; MOE gapmer, wing and gap sizes not given here)"
parameter_measured = "Spleen weight"
measured_value = 0.24

